- Tested on: biotinyl-Trp-oxazolone
- test name: self-aminoacylation, catalytic enhancement (BWO) (fold over background); higher = more active; k-Seq, kA / k0A0; sequences stand for … in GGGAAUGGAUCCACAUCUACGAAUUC…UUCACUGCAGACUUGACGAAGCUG
Variants at the floor of the assay were thinned out.
measurement label: self-aminoacylation
Reply: number alone, nothing else.

self-aminoacylation in this record for AUUACCCUGCUCAACGAGUGA [Fam2.1 aminoacylation ribozyme variant] : 6.69

self-aminoacylation in this record for CCACACUGUAAGCAAUCGGUC [Fam1B.1 aminoacylation ribozyme variant] : 1.16

self-aminoacylation in this record for CCACACUUCUGGCAAUCGGUC [Fam1B.1 aminoacylation ribozyme variant] : 0.873

self-aminoacylation in this record for AUUACCCGGGUCAUCGAGUGG [Fam2.1 aminoacylation ribozyme variant] : 2.45

self-aminoacylation in this record for AUUUCCCUAGUCAUCGAGUGA [Fam2.1 aminoacylation ribozyme variant] : 7.31

self-aminoacylation in this record for CUACUUCAAUCGAUCGGUCUG [Fam1A.1 aminoacylation ribozyme variant] : 0.977

self-aminoacylation in this record for CUACCUCAAACAAUCGGUCGG [Fam1A.1 aminoacylation ribozyme variant] : 1.78

self-aminoacylation in this record for AAGGUUGCUAGUAGUCGCAAG [Fam3.1 aminoacylation ribozyme variant] : 1.3

self-aminoacylation in this record for AAGUGUGCUAAUUGUCGCAAG [Fam3.1 aminoacylation ribozyme variant] : 2.65

self-aminoacylation in this record for AUUACCCUGGUCCUCGAGAGA [Fam2.1 aminoacylation ribozyme variant] : 0.889

self-aminoacylation in this record for AUCACCCUGGUCAACGAGUGA [Fam2.1 aminoacylation ribozyme variant] : 10.6

self-aminoacylation in this record for CCACACUUCAAGCCGUCGGUC [Fam1B.1 aminoacylation ribozyme variant] : 1

self-aminoacylation in this record for AAGUUUGCUAAUGGUCGCCAG [Fam3.1 aminoacylation ribozyme variant] : 1.52

self-aminoacylation in this record for AUUCACCUAGGACUUCGGGUG [Fam2.2 aminoacylation ribozyme variant] : 3.48

self-aminoacylation in this record for CCACUCUUCAAACAAUCGGUC [Fam1B.1 aminoacylation ribozyme variant] : 41.8

self-aminoacylation in this record for AUACACCUAGGUCAUCGGAUG [Fam2.2 aminoacylation ribozyme variant] : 0.96

self-aminoacylation in this record for AUUACCGUGGUGAUCGAGUGA [Fam2.1 aminoacylation ribozyme variant] : 5.02

self-aminoacylation in this record for AAUACCCUGGUCAUCGAAUGA [Fam2.1 aminoacylation ribozyme variant] : 1.17

self-aminoacylation in this record for AAGUUUGCUAAUAGUCGUAAU [Fam3.1 aminoacylation ribozyme variant] : 1.13

self-aminoacylation in this record for CCACAAUUCAAGCAUUCGGUC [Fam1B.1 aminoacylation ribozyme variant] : 1.36

self-aminoacylation in this record for AUUCACCUAGGUCAUCGCUUG [Fam2.2 aminoacylation ribozyme variant] : 0.795

self-aminoacylation in this record for CUACUUCAACCAAUCGGUCCG [Fam1A.1 aminoacylation ribozyme variant] : 5.57

self-aminoacylation in this record for AUUAUCCUGGUCAUCGAGCGA [Fam2.1 aminoacylation ribozyme variant] : 1.46

====

- Tested on: biotinyl-Trp-oxazolone
- test name: self-aminoacylation, catalytic enhancement (BWO) (fold over background); higher = more active; k-Seq, kA / k0A0; sequences stand for … in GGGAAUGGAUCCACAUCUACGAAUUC…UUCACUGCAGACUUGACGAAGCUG
This sample holds only a part of the variants without activity.
Returns one of yes (1) or no (0); yes (1) when self-aminoacylation is >= 5.

Quick check, self-aminoacylation >= 5? AUUCAACUAGGUCAUCGGGAG [Fam2.2 aminoacylation ribozyme variant]
no (0)

Quick check, self-aminoacylation >= 5? AAGUUGGCUAAUAGUCACAAG [Fam3.1 aminoacylation ribozyme variant]
no (0)

Quick check, self-aminoacylation >= 5? CCACACUUCAAGCAACCCGUC [Fam1B.1 aminoacylation ribozyme variant]
no (0)

Quick check, self-aminoacylation >= 5? AUUCCCCUGGUCAUCGGGUGA [Fam2.1 aminoacylation ribozyme variant]
yes (1)

Quick check, self-aminoacylation >= 5? AUUCACCUAGCUCAUGGGGUG [Fam2.2 aminoacylation ribozyme variant]
no (0)

Quick check, self-aminoacylation >= 5? AUUCACCUACGUCAUUGGGUG [Fam2.2 aminoacylation ribozyme variant]
no (0)

====

- Test system: biotinyl-Ile-oxazolone
- test name: self-aminoacylation, catalytic enhancement (BIO) (fold over background); higher = more active; k-Seq, kA / k0A0; sequences stand for … in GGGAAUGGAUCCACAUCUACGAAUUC…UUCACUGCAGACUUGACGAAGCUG
Variants at the floor of the assay were thinned out.
measurement label: self-aminoacylation
Reply: number alone, nothing else.

self-aminoacylation in this record for AAGUCUGCUAAUAGUCGCAGG [Fam3.1 aminoacylation ribozyme variant] : 1.7

self-aminoacylation in this record for GUUACCCUUGUCAUCGAGUGA [Fam2.1 aminoacylation ribozyme variant] : 4.41

self-aminoacylation in this record for AAGUUUGCUUAUAGUCUCAAG [Fam3.1 aminoacylation ribozyme variant] : 1.05

====

- Test system: biotinyl-Phe-oxazolone
- test name: self-aminoacylation, catalytic enhancement (BFO) (fold over background); higher = more active; k-Seq, kA / k0A0; sequences stand for … in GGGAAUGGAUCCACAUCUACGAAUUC…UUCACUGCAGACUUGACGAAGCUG
Fewer inactive variants are shown than the library holds.
Provide the recorded self-aminoacylation for the entries that follow.
Reply: number alone, nothing else.

self-aminoacylation in this record for AUUACCCCGGUCAUUGAGUGA [Fam2.1 aminoacylation ribozyme variant] : 43.9

self-aminoacylation in this record for CCACACAUCAAGAAAUCGGUC [Fam1B.1 aminoacylation ribozyme variant] : 1.2

self-aminoacylation in this record for CCACAGUUCAAGCAAUCGGUG [Fam1B.1 aminoacylation ribozyme variant] : 25.9

self-aminoacylation in this record for AUUCACCUAGGUUAUCGCGUG [Fam2.2 aminoacylation ribozyme variant] : 20.7

self-aminoacylation in this record for CGAGACUUCAAGCAAUCGGUC [Fam1B.1 aminoacylation ribozyme variant] : 5.77

self-aminoacylation in this record for CCACACUUCACGCAUUCGGUC [Fam1B.1 aminoacylation ribozyme variant] : 2.45

self-aminoacylation in this record for AUCCACCUAGGUGAUCGGGUG [Fam2.2 aminoacylation ribozyme variant] : 35.5

====

- System: biotinyl-Val-oxazolone
- test name: self-aminoacylation, catalytic enhancement (BVO) (fold over background); higher = more active; k-Seq, kA / k0A0; sequences stand for … in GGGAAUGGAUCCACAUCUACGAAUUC…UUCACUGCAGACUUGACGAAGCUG
This sample holds only a part of the variants without activity.
measurement label: self-aminoacylation
Reply: number alone, nothing else.

self-aminoacylation in this record for AUUAACCUAGGUCAUCGGCUG [Fam2.2 aminoacylation ribozyme variant] : 1.59

self-aminoacylation in this record for AUUCACCUAGGGCAUCUGGUG [Fam2.2 aminoacylation ribozyme variant] : 2.33

self-aminoacylation in this record for CCAGUCUUCAAGCAAUCGGUC [Fam1B.1 aminoacylation ribozyme variant] : 1.63

self-aminoacylation in this record for AAGUUUCCUAAUAGUAGCAAG [Fam3.1 aminoacylation ribozyme variant] : 1.05

====

Provide the recorded self-aminoacylation for the entries that follow.
- System: biotinyl-Trp-oxazolone
- test name: self-aminoacylation, catalytic enhancement (BWO) (fold over background); higher = more active; k-Seq, kA / k0A0; sequences stand for … in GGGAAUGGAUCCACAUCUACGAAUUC…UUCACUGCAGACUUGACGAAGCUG
Fewer inactive variants are shown than the library holds.
Reply: number alone, nothing else.

self-aminoacylation in this record for CCACACUUCAAACAAUCGCUC [Fam1B.1 aminoacylation ribozyme variant] : 0.765

self-aminoacylation in this record for AUUCACCUGGGUCAACGGGUG [Fam2.2 aminoacylation ribozyme variant] : 3.21

self-aminoacylation in this record for CCACACUUCACGCUAUCGGUC [Fam1B.1 aminoacylation ribozyme variant] : 0.951

self-aminoacylation in this record for AUUACCCGAGUCAUCGAGUGA [Fam2.1 aminoacylation ribozyme variant] : 10.2

self-aminoacylation in this record for CCACACUUCAAGCAAGUGGUC [Fam1B.1 aminoacylation ribozyme variant] : 0.536

self-aminoacylation in this record for AUUAAGCUGGUCAUCGAGUGA [Fam2.1 aminoacylation ribozyme variant] : 3.85

====

- Test system: biotinyl-Phe-oxazolone
- test name: self-aminoacylation, catalytic enhancement (BFO) (fold over background); higher = more active; k-Seq, kA / k0A0; sequences stand for … in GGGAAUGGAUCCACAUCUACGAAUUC…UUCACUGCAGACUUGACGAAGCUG
Fewer inactive variants are shown than the library holds.
Provide the recorded self-aminoacylation for the entries that follow.
Reply: number alone, nothing else.

self-aminoacylation in this record for CCACACGUCAAGCAAUCGGGC [Fam1B.1 aminoacylation ribozyme variant] : 2.86

self-aminoacylation in this record for AAGUUUGCUAAUAGUCGCAUC [Fam3.1 aminoacylation ribozyme variant] : 1.53

self-aminoacylation in this record for AUUCACCUAGGUCAUGGUGUG [Fam2.2 aminoacylation ribozyme variant] : 0.397

self-aminoacylation in this record for AUUCACCCAGGUUAUCGGGUG [Fam2.2 aminoacylation ribozyme variant] : 35.3

self-aminoacylation in this record for CUAGUUCAAACAAUCAGUCUG [Fam1A.1 aminoacylation ribozyme variant] : 5.02

self-aminoacylation in this record for AUUACCCUGGUCACCAAGUGA [Fam2.1 aminoacylation ribozyme variant] : 34.3

self-aminoacylation in this record for CCACACUUCAAACAUUCGGUC [Fam1B.1 aminoacylation ribozyme variant] : 0.837

self-aminoacylation in this record for AUUACCCUGGCUAUCGAGUGA [Fam2.1 aminoacylation ribozyme variant] : 4.17

self-aminoacylation in this record for CCACACUUCAAGCAAUCCGUG [Fam1B.1 aminoacylation ribozyme variant] : 26.9

self-aminoacylation in this record for CCACUUCAAACAAUCGUUCUG [Fam1A.1 aminoacylation ribozyme variant] : 2.21

self-aminoacylation in this record for CUACUUCAAAAAAUCGGUCUG [Fam1A.1 aminoacylation ribozyme variant] : 11.8

self-aminoacylation in this record for CUACUUCAAACAAUCGGACUC [Fam1A.1 aminoacylation ribozyme variant] : 5.7

self-aminoacylation in this record for AUUACCCUGGUCAUCGACUGC [Fam2.1 aminoacylation ribozyme variant] : 0.441

self-aminoacylation in this record for CCACACUCCAAGCAAUCGGUA [Fam1B.1 aminoacylation ribozyme variant] : 0.936

self-aminoacylation in this record for AUUGACCUAGGUCAUAGGGUG [Fam2.2 aminoacylation ribozyme variant] : 1.72

self-aminoacylation in this record for AGGUAUGCUAAUAGUCGCAAG [Fam3.1 aminoacylation ribozyme variant] : 9.64

self-aminoacylation in this record for AAGUUUGCCUAUAGUCGCAAG [Fam3.1 aminoacylation ribozyme variant] : 0.956
